Cited source: patent US6180360A

# System: phenoxyacetyl-coenzyme A synthetase (ligase)
# Assay Comment: Substrate specificity by direct acyl-coenzyme A synthetase assays (HPLC)
# Format: biochemical, Penicillium chrysogenum
# Condition: substrate of the ligase; phenoxyacetic acid = 100
Kindly supply the reported relative activity values for the records listed here.

# Compound, relative activity
rows = [
    ("O=C(O)CCCCC(=O)O [adipic acid]", 19),
    ("CCCCCC(=O)O [hexanoic acid]", 320),
]

Working through the 3 compounds below one at a time, give relative activity for each.
1. O=C(O)COc1ccccc1 [phenoxyacetic acid]
2. CC(=O)O [acetic acid]
3. O=C(O)Cc1ccccc1 [phenylacetic acid]

// result
[100, "< 1", 80]
